Recorded values, source the supplement of paper PMC10899765.

Recorded measurements of percent viability, one per entry
- System: MCF10A
- Assay Remarks: percent viability (nuclei count relative to siNT); higher = more viable cells
- Measurement Conditions: 20 nM; 72 h
Write the answer as a number in %, unit excluded.

{"Polymer Sequence": "UAUACCUCAGUUUUAUCAGGUG [hsa-miR-875-5p]", "percent viability / %": 119}
{"Polymer Sequence": "GUGGUUAUCCCUGCUGUGUUCG [hsa-miR-487a-5p]", "percent viability / %": 42}
{"Polymer Sequence": "UAUGGGGCUUCUGUAGAGAUUUC [hsa-miR-3675-5p]", "percent viability / %": 37.2}
{"Polymer Sequence": "UCUGGGUGCAGUGGGGGUU [hsa-miR-6776-5p]", "percent viability / %": 2.41}
{"Polymer Sequence": "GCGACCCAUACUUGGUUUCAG [hsa-miR-551b-3p]", "percent viability / %": 111}

Field percent viability (MCF10A), entry UGACCUCUCCGCUCCGCACAG [hsa-miR-6821-3p] : 38.9

Field percent viability (MCF10A), entry UCAGUAAAUGUUUAUUAGAUGA [hsa-miR-545-5p] : 175

Field percent viability (MCF10A), entry UGCUGAGGUCCGGGCUGUGCC [hsa-miR-7160-5p] : 16.8

Field percent viability (MCF10A), entry CUGCCAUGUCUAAGAAGAAAAC [hsa-miR-4659a-5p] : 68.5

Field percent viability (MCF10A), entry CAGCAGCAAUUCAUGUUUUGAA [hsa-miR-424-5p] : 77.3

Field percent viability (MCF10A), entry UGACCCCUUCUGUCUCCCUAG [hsa-miR-6846-3p] : 47.5
